The values you see were collected from patent US20250376535A1.

What OD450 was measured for each of the following?
Target: T1, recombinant human OX40-Fc (human, UniProt P43489 29-214)
T1 construct: also called rh-OX40-Fc; human OX40 hFC (R & D systems)
T1 sequence: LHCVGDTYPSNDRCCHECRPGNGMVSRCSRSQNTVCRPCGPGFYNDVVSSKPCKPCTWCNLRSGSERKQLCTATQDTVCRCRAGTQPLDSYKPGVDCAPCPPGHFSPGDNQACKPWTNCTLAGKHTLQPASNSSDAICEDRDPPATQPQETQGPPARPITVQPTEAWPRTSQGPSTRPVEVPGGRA
Assay: ELISA, OX40-Fc coated, VHH at 40 nM

>  <binder>
pgXX88-60 (VHH, not shown: small tags and cut ends) VHH: EVQLVESGGGLAQPGGSLRLSCAASGFTFSNYAMGWYRQAPGKEREFVAAIDWSTNALLYGDSVKGRFTISRDNAKNTVFLQMSGLKPEDTALYYCAADRAYHTVVLGPPEGMDYWGKGTQVTVSS

>  <measured>
0.718

$$$$
>  <binder>
pgXX88-SZ-15 (VHH, not shown: small tags and cut ends) VHH: QVQLVESGGGLVQPGGSLRLSCSPSEGAFKMLTTGWFRQVLGKEREFVSAISWGGGATYYADSVKGRFTVSRDNAKNTVYLQMNSLKPEDTAVYYCAVDTGNGVATNIRSQSRYDYWGQGTQVTVSS

>  <measured>
1.95

$$$$
>  <binder>
pgXX88-83 (VHH, not shown: small tags and cut ends) VHH: EVQLVESGGGLVQTGDSLRLSCAALGGTPSTYAIGWFRQAAGKELQFVARITWNGDTWYADALPGRVAISRDNAKKTVYLQMNNLKPEDTAEYICAADVSEFRDIPNRDSRANYRYWGQGTQVTVSS

>  <measured>
0.252

$$$$
>  <binder>
pgXX88-19 (VHH, not shown: small tags and cut ends) VHH: EVQLVESGGGLVQAGGSLRLSCVATGRTRSSTYIMAWFRQAPGKERDFVAAISFIGGSPVYTDSVKGRFTISRVIAENTVHLQMNDLTPEDTALYYCAATDSGPLGPSGPSKYEYWGQGTQVTVSS

>  <measured>
1.61

$$$$
>  <binder>
pgXX88-5 (VHH, not shown: small tags and cut ends) VHH: QVQLVESGGGLVQAGGSLRLSCAASGGTFSTYAMGWFRQAPGKEPQFVARITWSGYTLYTEPVQGRFAISRDNAKNTVYLQMNSLKPEDTAEYFCAADSSEFRDIPNRDSRANYRYWGQGTQVTVSS

>  <measured>
0.242

$$$$

Kindly give each listed record's OD450.
1. pgXX88-16 (VHH, not shown: small tags and cut ends) VHH: QVQLVESGGGLVQAGESLNLSCSASGSIRNNAVAWFRQGPGNQRLRVAAITNTGTTDYADSVQGRFSIARDNAENTVTLQMNSLKPEDTAIYYCKIYTLPVPISSHDDTWGQGTQVTVSS
2. pgXX88-SZ-4 (VHH, not shown: small tags and cut ends, also called ppXX88-SZ-4) VHH: QVQLVESGGGLAQPGSSLRLSCTASGTVFSILSATWFRQAPGKAHEARELVAFISSDGVSMHADSVKGRFTISRDNAASTVYLQMDNLQPEDTAVYFCKLSNSMMSLEYWGRGTQVTVSS
3. pgXX88-10 (VHH, not shown: small tags and cut ends) VHH: EVQLVESGGGLVQAGESLRLSCSASGSIRLNAVGWFRQAPVNQRLMVATITHNNSTNYADSVQGRFTIARDDAKNTVTLQMNSLKPEDTAVYMCKVYQLPVPISSHDDYWGQGTQVTVSS
4. pgXX88-27 (VHH, not shown: small tags and cut ends) VHH: EVQLVESGGGLVQPGGSVTLSCATSKDTFSRYHMGWFRQAAGKEREFVAAIANTGTTTDYADFVKGRFTISRDSAKNTVYLQMDSLKVEDTAMYYCVVGSQFMSYDYWGQGTQVTVSS
5. pgXX88-2 (VHH, not shown: small tags and cut ends) VHH: EVQLVESGGGLVQPGGSLRLSCAASGFAFGDIPMMWVRQAPGKGREWVSSISADSATQSYADSVQDRFTISRDNAKNTLYLEMHILKPEDTAVYYCATTDRPPPGQGTQVTVSS
6. pgXX88-81 (VHH, not shown: small tags and cut ends) VHH: EVQLVESGGGLAQPGSSLRLSCTASGTVFSILSATWFRQAPGKAHEARELVAFISSDGVSMHADSVKGRFTISRDNAKSTVYLQMDNLQPEDTAAYYCKLSNSMMGMEYWGRGTQVTVSS
7. pgXX88-84 (VHH, not shown: small tags and cut ends) VHH: EVQLVESGGRLVQAGDSLKLSCTASGRTFSDYVMGWFRQVPGEGRLMVAVITPAGDTTEYADAVKGRFSISKDSAKRTVNLQMNNLKVDDTAVYYCAAGPSWIGMQFGTAEYWGQGTQVTVSS

1.48
1.49
1.54
1.35
1.63
0.75
0.324
